Tested on: GBM8901
Test: MTT assay, GBM8901 tumor cell
Details: concentration 10 μM, tumor cell
endpointName: Cell survival rate (%) GBM8901

{"columns": ["smilesRepr", "studyTarget", "endpointName", "recordedValue"],
 "data": [
  ["O=C1c2ccccc2C(=O)c2c1ccc1nc(SCCN3CCOCC3)[nH]c21", "GBM8901", "Cell survival rate (%) GBM8901", 68],
  ["O=C1c2ccccc2C(=O)c2c1ccc1nc3n(c21)CCS3", "GBM8901", "Cell survival rate (%) GBM8901", 37],
  ["O=C1c2ccccc2C(=O)c2c1ccc1nc(SCCN3CCCCC3)[nH]c21", "GBM8901", "Cell survival rate (%) GBM8901", 42],
  ["COC(=O)CCCSc1nc2ccc3c(c2[nH]1)C(=O)c1ccccc1C3=O", "GBM8901", "Cell survival rate (%) GBM8901", 80],
  ["Cc1ccccc1CSc1nc2ccc3c(c2[nH]1)C(=O)c1ccccc1C3=O", "GBM8901", "Cell survival rate (%) GBM8901", 18],
  ["O=C(Sc1nc2ccc3c(c2[nH]1)C(=O)c1ccccc1C3=O)c1cc(C(F)(F)F)ccc1C(F)(F)F", "GBM8901", "Cell survival rate (%) GBM8901", 68],
  ["O=C1c2ccccc2C(=O)c2c1ccc1nc(SCCCN3CCCCC3)[nH]c21", "GBM8901", "Cell survival rate (%) GBM8901", 10],
  ["O=C(Sc1nc2ccc3c(c2[nH]1)C(=O)c1ccccc1C3=O)c1ccccc1[N+](=O)[O-]", "GBM8901", "Cell survival rate (%) GBM8901", 58],
  ["O=C1c2ccccc2C(=O)c2c1ccc1nc(SCCN3CCCC3)[nH]c21", "GBM8901", "Cell survival rate (%) GBM8901", 18]
]}

---

Test system: NCI-H322M
Assay: NCI 60-cell drug screen, Non-Small Cell Lung Cancer NCI-H322M
Assay type: cell-based, human
Details: 1.00E−5 Molar

{"columns": ["compound", "studyTarget", "Growth Percent, NCI-H322M [%]"],
 "data": [
  ["O=C1c2ccccc2C(=O)c2c1ccc1nc3n(c21)CCS3 [f3-1]", "NCI-H322M", 72.06],
  ["CN(C)CCCSc1nc2ccc3c(c2[nH]1)C(=O)c1ccccc1C3=O [f1-15]", "NCI-H322M", 70.75],
  ["O=C1c2ccccc2C(=O)c2c1ccc1nc(SCCN3CCCC3)[nH]c21 [f1-11]", "NCI-H322M", 73.18],
  ["CCCSc1nc2ccc3c(c2[nH]1)C(=O)c1ccccc1C3=O [f1-2]", "NCI-H322M", 76.02],
  ["O=C1c2ccccc2C(=O)c2c1ccc1nc(S)[nH]c21 [f1-0]", "NCI-H322M", 96.31],
  ["CCSc1nc2ccc3c(c2[nH]1)C(=O)c1ccccc1C3=O [f1-1]", "NCI-H322M", 33.44]
]}

---

Documented Growth Percent, RXF 393 across a set of compounds
System: RXF 393
Test: NCI 60-cell drug screen, Renal Cancer RXF 393
Type: cell-based, human
Details: 1.00E−5 Molar

{"columns": ["smilesRepr", "Growth Percent, RXF 393"],
 "data": [
  ["CCCSc1nc2ccc3c(c2[nH]1)C(=O)c1ccccc1C3=O", "20.07%"],
  ["O=C1c2ccccc2C(=O)c2c1ccc1nc(SCCN3CCCC3)[nH]c21", "22.62%"],
  ["O=C1c2ccccc2C(=O)c2c1ccc1nc(S)[nH]c21", "141.66%"],
  ["O=C1c2ccccc2C(=O)c2c1ccc1nc3n(c21)CCS3", "46.50%"],
  ["CCSc1nc2ccc3c(c2[nH]1)C(=O)c1ccccc1C3=O", "99.91%"],
  ["CN(C)CCCSc1nc2ccc3c(c2[nH]1)C(=O)c1ccccc1C3=O", "38.40%"]
]}
